assay overview: binders of probe aFSTL3 on microarray, primary screen, stem cell growth factor project, biochemical, small-molecule microarray, fluorescence 635/667 (AID 1064);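 further: measures binding of the biotinylated anti-FSTL3 antibody to printed compounds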
protocol conditions: higher = more signal
composite z-score vs -0.5: at or above is true (1), below is false (0).

Previously resolved entries follow.
>  <compound>
CC(C)(C)N1C(=O)[C@H]2[C@H]3[C@H](O)[C@H](O)CC(=O)[C@@H]3CC[C@H]2C1=O

>  <assigned class>
true (1)

$$$$
>  <compound>
Cc1ccc(S(=O)(=O)NC(CCc2ccccc2)CC(=O)C(C)(C)C)cc1 (stereo unspecified)

>  <assigned class>
false (0)

$$$$
>  <compound>
CC(CCN1CCCc2nc(C)c(C)cc21)=NO[C@@H](C)c1cc(-c2c(C)cc(C)cc2C)no1

>  <assigned class>
true (1)

$$$$
>  <compound>
CCOC(=O)[C@H](Cc1ccccc1)NC(=O)CCC1CC(OC(=O)NCCc2ccc(F)cc2)CC2(CCCC(COC(=O)NCCc3ccccc3OC)O2)O1 (stereo partly specified)

>  <assigned class>
false (0)

$$$$
>  <compound>
CO[C@H]1COC(=O)CC=C[C@H](C)[C@@H](OC)COC(=O)[C@H](C)COC(=O)CC=C[C@@H]1C

>  <assigned class>
false (0)

$$$$

Identify whether the reported composite z-score of the following compound is -0.5 or greater: `C#CCCCON=C1[C@H]2CCn3c(=O)n(C)c(=O)n3[C@H]2[C@H](O)[C@@H]2O[C@H]12`
true (1)

Identify whether the reported composite z-score of the following compound is -0.5 or greater: `CCc1cc2c(nc1CC)CCN(CCC(C)=NO[C@@H](C)c1cn([C@H](CO)Cc3ccccc3)nn1)C2`
true (1)

Identify whether the reported composite z-score of the following compound is -0.5 or greater: `O=C(NN=C1C[C@@H](O)[C@@H](O)[C@@H]2[C@@H]3C(=O)N(C4CCCCC4)C(=O)[C@@H]3CC[C@@H]12)OCc1ccccc1`
true (1)

Identify whether the reported composite z-score of the following compound is -0.5 or greater: `CC(CCN1CCCCc2nc(C)c(C)cc21)=NO[C@@H](C)c1cn([C@H](CO)Cc2ccccc2)nn1`
true (1)

Identify whether the reported composite z-score of the following compound is -0.5 or greater: `Cn1c(=O)n2n(c1=O)[C@H]1[C@H](O)[C@@H]3O[C@@H]3C(=NOCc3ccccc3)[C@H]1CC2`
true (1)

Identify whether the reported composite z-score of the following compound is -0.5 or greater: `O=C1[C@H]2[C@H]3[C@H](O)[C@H](O)CC(=NOC[C@@H](O)COCc4ccco4)[C@H]3CC[C@H]2C(=O)N1c1ccc(F)cc1F`
true (1)

====

Recorded z-score for the following molecules
assay overview: FRG1 promoter luciferase signal modulators, primary screen, FRG1 inhibition for FSHD, cell-based, C2C12 myotubes, firefly/Renilla luciferase, luminescence (AID 1084)
protocol conditions: higher = more signal, called active from +8 up or from −8 down
Calls of active or inactive are those of the source.

>  <molecule>
CC(C)=NO[C@H](C)c1cn([C@H](CO)Cc2ccccc2)nn1

>  <z-score>
-0.266 (inactive)

$$$$
>  <molecule>
CCOC(=O)[C@H](CC(C)C)NC(=O)CCC1CC(OC(=O)NCc2ccc3c(c2)OCO3)CC2(CCCC(COC(=O)NCC3CCCCC3)O2)O1 (stereo partly drawn)

>  <z-score>
0.807 (inactive)

$$$$

Give the reported z-score for this molecule. `COC(=O)CC=C[C@H](C)[C@@H](OCc1cccc(Br)c1)[C@@H](C)[C@H](OC)C1CCCCC1`
1.23 (inactive)

====

Test system: Human papillomavirus type 1a protein E7 (residues 44-93)
assay overview: HPV1a E7 fragment binders on microarrays, primary screen, biochemical, small-molecule microarray, residues 44-93, 635 nm fluorescence (AID 1108);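 further: E7 fragment applied at 1 µg/mL in TBST for 1 h at 4 C; score combines spot fluorescence with its signal to noise ratio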
protocol conditions: small-molecule microarray binding, fluorescence 635 nm; higher = more signal
Recorded composite z-score for the following compounds
Number only, no unit.

Answered cases to consult:
>  <compound>
C=COC[C@@H]1CN2[C@@H](CC[C@@H](C)[C@@H]2c2ccc(Br)cc2)C(=O)O1

>  <system tested>
Human papillomavirus type 1a protein E7 (residues 44-93)

>  <endpoint label>
composite z-score

>  <number>
-0.0205

$$$$
>  <compound>
CO[C@@H]1COC(=O)CC=C[C@@H](C)[C@@H]2C=C[C@H](O)[C@@H](COC(=O)CC=C[C@H]1C)O2

>  <system tested>
Human papillomavirus type 1a protein E7 (residues 44-93)

>  <endpoint label>
composite z-score

>  <number>
-0.913

$$$$
>  <compound>
CCN1C(=O)[C@@H]2[C@H]3C(=CC[C@@H]2C1=O)C1(OCCCO1)[C@H]1O[C@H]1[C@H]3O

>  <system tested>
Human papillomavirus type 1a protein E7 (residues 44-93)

>  <endpoint label>
composite z-score

>  <number>
1.38

$$$$
>  <compound>
O=C1[C@H]2[C@H]3[C@H](O)[C@H](O)CC(=NOCc4ccccc4)[C@H]3CC[C@H]2C(=O)N1Cc1ccc2c(c1)OCO2

>  <system tested>
Human papillomavirus type 1a protein E7 (residues 44-93)

>  <endpoint label>
composite z-score

>  <number>
-0.249

$$$$
>  <compound>
CC(=O)OC[C@H]1O[C@@H](ON=C(C)CCN2CCCc3nc(C)c(C)cc32)[C@H](OC(C)=O)[C@@H](OC(C)=O)[C@@H]1OC(C)=O

>  <system tested>
Human papillomavirus type 1a protein E7 (residues 44-93)

>  <endpoint label>
composite z-score

>  <number>
1.38

$$$$
>  <compound>
COC(=O)CC=C[C@@H](C)[C@@H](C=NOC[C@H]1O[C@H](c2ccccc2)C=C[C@@H]1Oc1ccc(OC)cc1)OC

>  <system tested>
Human papillomavirus type 1a protein E7 (residues 44-93)

>  <endpoint label>
composite z-score

>  <number>
-0.585

$$$$
>  <compound>
CO[C@@H]1COC(=O)[C@@H](C)NC(=O)CC=C[C@@H](C)[C@H](NS(=O)(=O)c2ccc(C)cc2)COC(=O)[C@H](C)NC(=O)CC=C[C@H]1C

>  <system tested>
Human papillomavirus type 1a protein E7 (residues 44-93)

>  <endpoint label>
composite z-score

>  <number>
-0.0926

$$$$
>  <compound>
C[C@@H](ON=C1[C@H]2CCn3c(=O)n(-c4ccccc4)c(=O)n3[C@H]2[C@H](O)[C@@H]2O[C@H]12)c1cn([C@@H]2COC[C@H]2O)nn1

>  <system tested>
Human papillomavirus type 1a protein E7 (residues 44-93)

>  <endpoint label>
composite z-score

>  <number>
0.361

$$$$
>  <compound>
COC(=O)CC=C[C@@H](C)[C@@H](C=NOC[C@@H](O)[C@H]1O[C@@H]2OC(C)(C)O[C@@H]2[C@H]1O)NS(=O)(=O)c1ccc(C)cc1

>  <system tested>
Human papillomavirus type 1a protein E7 (residues 44-93)

>  <endpoint label>
composite z-score

>  <number>
0.496

$$$$
>  <compound>
CCOC(=O)NN=C1C[C@@H](O)[C@@H](O)[C@@H]2[C@@H]3C(=O)N([C@@H](C)c4ccccc4)C(=O)[C@@H]3CC[C@H]12

>  <system tested>
Human papillomavirus type 1a protein E7 (residues 44-93)

>  <endpoint label>
composite z-score

>  <number>
0.171

$$$$

Give the reported composite z-score for this compound. `CCOC(=O)C1=NO[C@@]2(C=C(Br)C3(OCCCO3)[C@H]3O[C@H]32)C1`
0.339

Give the reported composite z-score for this compound. `CCO[C@H](c1cc(OC)cc([N+](=O)[O-])c1OC)[C@H](C)C=CCC(=O)OC`
-0.679

Give the reported composite z-score for this compound. `CCCNC(=O)OC[C@H]1O[C@H](CCON=C(C)C)C=C[C@@H]1Oc1ccc(OC)cc1`
-0.599

====

system tested: Focal adhesion kinase 1 (Homo sapiens) (UniProt Q05397)
Sequence (Q05397 whole entry, looked up): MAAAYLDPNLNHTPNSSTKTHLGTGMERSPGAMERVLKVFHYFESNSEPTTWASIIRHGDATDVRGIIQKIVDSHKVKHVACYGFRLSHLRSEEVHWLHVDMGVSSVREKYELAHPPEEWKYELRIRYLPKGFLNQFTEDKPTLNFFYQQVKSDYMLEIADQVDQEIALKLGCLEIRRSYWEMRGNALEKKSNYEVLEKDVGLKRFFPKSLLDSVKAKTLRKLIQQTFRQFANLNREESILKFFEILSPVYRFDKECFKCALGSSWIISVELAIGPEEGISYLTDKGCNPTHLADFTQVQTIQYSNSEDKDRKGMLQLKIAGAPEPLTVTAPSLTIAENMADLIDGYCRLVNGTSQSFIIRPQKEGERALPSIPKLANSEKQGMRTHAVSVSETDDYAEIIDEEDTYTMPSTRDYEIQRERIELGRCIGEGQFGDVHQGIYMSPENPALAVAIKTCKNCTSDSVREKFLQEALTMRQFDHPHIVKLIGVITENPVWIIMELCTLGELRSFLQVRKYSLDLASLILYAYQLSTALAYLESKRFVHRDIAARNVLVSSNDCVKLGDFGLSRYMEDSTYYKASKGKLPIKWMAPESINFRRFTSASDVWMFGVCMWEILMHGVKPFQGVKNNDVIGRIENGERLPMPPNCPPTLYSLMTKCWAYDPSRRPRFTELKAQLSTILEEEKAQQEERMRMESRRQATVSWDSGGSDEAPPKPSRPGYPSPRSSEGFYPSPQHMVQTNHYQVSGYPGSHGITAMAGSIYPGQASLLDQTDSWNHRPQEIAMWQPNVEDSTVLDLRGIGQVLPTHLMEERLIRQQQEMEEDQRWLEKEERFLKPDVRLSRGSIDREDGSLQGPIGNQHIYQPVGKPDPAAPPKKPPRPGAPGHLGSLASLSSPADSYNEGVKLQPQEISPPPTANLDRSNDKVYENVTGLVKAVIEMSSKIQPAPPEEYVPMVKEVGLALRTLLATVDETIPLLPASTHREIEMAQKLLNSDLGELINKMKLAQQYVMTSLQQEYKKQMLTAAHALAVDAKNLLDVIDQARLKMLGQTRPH
assay overview: small-molecule microarray binders of FAK, primary screen, biochemical, 635/667 nm fluorescence, BSA, DTT (AID 1130);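 further: composite of spot emission at 667 nm and signal to noise over triplicate slides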
protocol conditions: PTK2 binding, 635 nm fluorescence, higher = more signal
Recorded composite z-score for the following compounds
Number only, no unit.

Give the reported composite z-score for this compound. COC(=O)[C@H](C)NC(=O)CCC1CC(OC(=O)NCc2ccc3c(c2)OCO3)CC2(CCCC(COC(=O)NCc3cccc(C(F)(F)F)c3)O2)O1 (stereo partly specified)
0.587

Give the reported composite z-score for this compound. O=C1CCCC(C2=CCCCC2=O)C1 (stereo unspecified)
0.26

Give the reported composite z-score for this compound. `CC(C)=NOC[C@@H](C)[C@H](OCc1ccccc1)C(C)C`
-0.15

Give the reported composite z-score for this compound. `CO[C@@H]1C=CCC(=O)N2CCC[C@H]2C(=O)OC[C@@H](C)C(=O)OC[C@H]1C`
-0.267

Give the reported composite z-score for this compound. `CO[C@@H]1COC(=O)[C@@H](C)NC(=O)CC=C[C@@H](C)[C@H](NS(=O)(=O)c2ccc(C)cc2)COC(=O)[C@H](C)NC(=O)CC=C[C@H]1C`
-0.0691

Give the reported composite z-score for this compound. `COc1cccc([C@@H]2Oc3ccc(OC)cc3C(=O)[C@H]2O)c1`
0.0207

Give the reported composite z-score for this compound. CCOC(=O)[C@H](CC(C)C)NC(=O)CCC1CC(OC(=O)NCc2cccc3ccccc23)CC2(CCCC(COC(=O)NCCOC)O2)O1 (stereo partly specified)
0.175

Give the reported composite z-score for this compound. `CO[C@H]1COC(=O)CCC[C@@H](C)[C@H](OC)COC(=O)[C@@H](C)NC(=O)CC=C[C@@H]1C`
-0.154

Source listed as PubChem BioAssay.
